Assay: Enzyme-coupled assay: transfer of acyl-moieties from MMal-CoA to the ACP
Assay type: biochemical
Conditions: substrate MMal-CoA, acceptor ACP from murine FAS

Molecule	Km
Mutant A02: engineered murine acyltransferase, mutation T161Y (protein) NKRPLWFICSGMGTQWRGMGLSLMRLDSFRESILRSDEAVKPLGVKVSDLLLSTDERTFDDIVHAFVSLTAIQIALIDLLTSVGLKPDGIIGHSLGEVACGYADGCLSQREAVLAAYWRGQCIKDAHLPPGSMAAVGLSWEECKQRCPAGVVPACHNSEDYVTISGPQAAVNEFVEQLKQEGVFAKEVRTGGLAFHSYFMEGIAPTLLQALKKVIREPRPRSARWLSTSIPEAQWQSSLARTSSAEYNVNNLVSPVLFQEALWHIPEHAVVLEIAPHALLQAVLKRGVKSSCTIIPLMKRDHKDNLEFFLTNLGKVHLT	38.8 µM
Mutant A03: engineered murine acyltransferase, mutations T161A F184A R286A (protein) NKRPLWFICSGMGTQWRGMGLSLMRLDSFRESILRSDEAVKPLGVKVSDLLLSTDERTFDDIVHAFVSLTAIQIALIDLLTSVGLKPDGIIGHSLGEVACGYADGCLSQREAVLAAYWRGQCIKDAHLPPGSMAAVGLSWEECKQRCPAGVVPACHNSEDAVTISGPQAAVNEFVEQLKQEGVAAKEVRTGGLAFHSYFMEGIAPTLLQALKKVIREPRPRSARWLSTSIPEAQWQSSLARTSSAEYNVNNLVSPVLFQEALWHIPEHAVVLEIAPHALLQAVLKAGVKSSCTIIPLMKRDHKDNLEFFLTNLGKVHLT	3.41 µM
Mutant A05: engineered murine acyltransferase, mutation K186E (protein) NKRPLWFICSGMGTQWRGMGLSLMRLDSFRESILRSDEAVKPLGVKVSDLLLSTDERTFDDIVHAFVSLTAIQIALIDLLTSVGLKPDGIIGHSLGEVACGYADGCLSQREAVLAAYWRGQCIKDAHLPPGSMAAVGLSWEECKQRCPAGVVPACHNSEDTVTISGPQAAVNEFVEQLKQEGVFAEEVRTGGLAFHSYFMEGIAPTLLQALKKVIREPRPRSARWLSTSIPEAQWQSSLARTSSAEYNVNNLVSPVLFQEALWHIPEHAVVLEIAPHALLQAVLKRGVKSSCTIIPLMKRDHKDNLEFFLTNLGKVHLT	14.2 µM
Mutant A15: engineered murine acyltransferase, mutations K186E R300E (protein) NKRPLWFICSGMGTQWRGMGLSLMRLDSFRESILRSDEAVKPLGVKVSDLLLSTDERTFDDIVHAFVSLTAIQIALIDLLTSVGLKPDGIIGHSLGEVACGYADGCLSQREAVLAAYWRGQCIKDAHLPPGSMAAVGLSWEECKQRCPAGVVPACHNSEDTVTISGPQAAVNEFVEQLKQEGVFAEEVRTGGLAFHSYFMEGIAPTLLQALKKVIREPRPRSARWLSTSIPEAQWQSSLARTSSAEYNVNNLVSPVLFQEALWHIPEHAVVLEIAPHALLQAVLKRGVKSSCTIIPLMKEDHKDNLEFFLTNLGKVHLT	58.4 µM
